Assay: yeast display, Sf9 membrane polyspecificity reagent, FACS + sequencing; frameworks hold sequencing errors
assay-readout: polyreactivity (PSR sort gate)

Known results for sequences:
Recorded polyreactivity (PSR sort gate) (sequence `QGQLVESGGGLVQAGGSLRLSCAASGSTFAYYAMGWYRQAPGKERELVAAINTTTGSTFYADSVKGRFTISRDNAKNTVYLQMNSLKPEDTAGYYCAAGVTGPSDDYDYWGQGTQVTVSS` ): low polyreactivity

Recorded polyreactivity (PSR sort gate) (sequence `QVQLVESGGGVVQAGGSLRVRCAASGIIYFIDYAMGWYRQAPGKERELVAAITSGGSTNYADSVKGRFTISRDNAKYTVYLQKNRLKPEDTAVYYCAAYLYSGSQYYFWGQGTQVIVSS` ): high polyreactivity

Recorded polyreactivity (PSR sort gate) (sequence `QVQLVESGGGLVQAGGSLRLSCAASGSIFSQYAMGWYRPAPGKERELVAAISRSGGRTSYADSVKGRFTISRDNAKNTVYLQMNSLKPEDTAVYYCAARGPTNMGYWGQGTQVTVSS` ): high polyreactivity

Recorded polyreactivity (PSR sort gate) (sequence `QVQLVESGGGLVQAGGSLRLSCAASGYTFGSNAMGWYRQAPGKERELVAAISTNGGRTNYADSVKGRFTISRDYAKNSVYLQMYSLIPEDTAVYYCNTRLRVRYYLSGFDYWGQGTQVTVSS` ): high polyreactivity

Recorded polyreactivity (PSR sort gate) (sequence `QVQLVESGGGLVQAGGSLRLSCAASGYIFALNAMGWYRQAPGKERELVASITGAGSTNYADSVKGRFTISRDNAKNTVYLQMNSLKPEDTAVYYCAKRTRRRGYYYWGQGTQVTVSS` ): high polyreactivity

Recorded polyreactivity (PSR sort gate) (sequence `QVQLVESGGGLVQAGGSLRLSCAASGSIFVDNAMGWYRQAPGKERELVAVITLRSGSTNYADSVKGRFTISRDNAKNTVYLQMNSLKPEDTAVYYCAADETYHDYQRDTDDDYWGQGTQVTVSS` ): low polyreactivity

Recorded polyreactivity (PSR sort gate) (sequence `QVQLVESGGGLVQAGGSLRLSCAASGSTFNFNVMGWYRQAPGKERELVAAISSSGGNTYYADSVKGRFTISRDNAKNTVYLQMNSLKPEDTAVYYCAAEYEEWYSVFLYDYWGQGTQVTVSS` ): high polyreactivity

Recorded polyreactivity (PSR sort gate) (sequence `QVQLVESGGGLVQAGGSLRLSCAASGYIFAYYAMGWYRQAPGKERELVATIRSGGSTNYADSVKGRFTISRDNAKNTGYLQMNILKPEDTAVYYCARDDATACDYWGQGSQVTVSS` ): low polyreactivity

Recorded polyreactivity (PSR sort gate) (sequence `QFQLVESGGGLVQAGGSLRLSCAASGFTFPYNGMGWYRQAPGKERELVAAISYGGGGKYYADSVKGRFTISRDNAKNTVYLQMNSLKPEDTAVYYCATDDPLSQINEQGMDYWGQGTQVTVSS` ): low polyreactivity

Recorded polyreactivity (PSR sort gate) (sequence `QVQLVESAAGLVQAGGSLRLSCDASGSIFYSYAMGWYRQAPGKERELVAAITDSGDSTYYADCVKGRFTISRDNAKNTVYLQMNSLKPEDTAVYYCAAGFYPYYYWGQGTQVTVSS` ): low polyreactivity

Next:
Recorded polyreactivity (PSR sort gate) (sequence `QVQLVESGGGIVQAGGSLRLSCAASGSTFNDNAMGWYRQAPGNERELVAAITGGGGRTYYADSVKGRFTISRDNAKNTVYLQMNSLKPEATAVYYCNRGATFEYWGHGTQVTVSS` ): low polyreactivity
